tested-target: Calpain I (Homo sapiens)
Sequence (P07384 whole entry): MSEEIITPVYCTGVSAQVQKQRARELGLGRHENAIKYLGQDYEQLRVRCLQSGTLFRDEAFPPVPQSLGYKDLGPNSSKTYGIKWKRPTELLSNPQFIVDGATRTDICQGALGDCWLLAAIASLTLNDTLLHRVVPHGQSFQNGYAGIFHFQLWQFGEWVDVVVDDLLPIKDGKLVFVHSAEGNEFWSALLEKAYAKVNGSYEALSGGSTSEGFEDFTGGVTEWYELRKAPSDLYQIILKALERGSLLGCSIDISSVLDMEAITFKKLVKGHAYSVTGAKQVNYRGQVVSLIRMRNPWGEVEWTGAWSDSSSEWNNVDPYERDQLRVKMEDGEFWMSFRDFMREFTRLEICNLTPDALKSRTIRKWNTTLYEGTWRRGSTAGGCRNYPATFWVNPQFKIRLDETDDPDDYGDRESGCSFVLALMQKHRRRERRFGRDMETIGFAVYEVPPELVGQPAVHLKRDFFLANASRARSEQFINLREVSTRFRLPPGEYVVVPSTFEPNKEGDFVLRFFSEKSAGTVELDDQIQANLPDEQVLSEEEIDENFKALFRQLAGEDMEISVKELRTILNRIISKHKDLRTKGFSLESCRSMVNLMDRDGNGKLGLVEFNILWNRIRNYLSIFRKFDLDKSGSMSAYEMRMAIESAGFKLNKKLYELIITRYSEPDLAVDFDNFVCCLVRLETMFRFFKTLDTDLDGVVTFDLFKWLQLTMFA
Sequence (P04632 whole entry partner): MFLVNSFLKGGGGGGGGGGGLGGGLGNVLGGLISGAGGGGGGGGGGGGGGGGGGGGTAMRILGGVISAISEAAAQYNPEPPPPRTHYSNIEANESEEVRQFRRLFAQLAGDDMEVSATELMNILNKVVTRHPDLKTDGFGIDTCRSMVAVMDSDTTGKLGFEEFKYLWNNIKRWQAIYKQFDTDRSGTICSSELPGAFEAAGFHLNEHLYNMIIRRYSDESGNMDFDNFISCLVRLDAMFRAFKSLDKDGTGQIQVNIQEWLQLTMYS
assay-summary: Inhibition and rate of inactivation of cysteine protease (calpain I) activity, Succ-Leu-Tyr-MNA substrate hydrolysis
condition-notes: read-out: % Inhib. @ 0.1 uM
reported-endpoint: inhibition at 0.1 µM (%)

compound="CCOP(=O)(C(=O)[C@H](CC(C)C)NC(=O)[C@H](CC(C)C)NC(=O)OCc1ccccc1)c1ccccc1 (some centres unmarked)" unit_label=% value_reported=0
compound=CCCCCP(=O)(CCCCC)OCC(=O)[C@H](Cc1ccccc1)NC(=O)[C@H](CC(C)C)NC(=O)OCc1ccccc1 unit_label=% value_reported=19
compound="CC(C)C[C@H](NC(=O)OCc1ccccc1)C(=O)N[C@@H](Cc1ccccc1)C(=O)COP1(=O)OCC(OCc2ccccc2)CO1 (some centres unmarked)" unit_label=% value_reported=47
compound="CCP(=O)(OCC(=O)[C@H](Cc1ccccc1)NC(=O)[C@H](CC(C)C)NC(=O)OCc1ccccc1)c1ccccc1 (some centres unmarked)" unit_label=% value_reported=51
compound=CC(C)C[C@H](NC(=O)OCc1ccccc1)C(=O)N[C@@H](Cc1ccccc1)C(=O)COP(=O)(OCc1cccc(Oc2ccccc2)c1)OCc1cccc(Oc2ccccc2)c1 unit_label=% value_reported=53
compound=COP(=O)(O)C(=O)[C@H](CC(C)C)NC(=O)[C@H](CC(C)C)NC(=O)OCc1ccccc1 unit_label=% value_reported=19
compound=CC(C)C[C@H](NC(=O)OCc1ccccc1)C(=O)N[C@@H](Cc1ccccc1)C(=O)COP(=O)(CCc1ccccc1)CCc1ccccc1 unit_label=% value_reported=15
compound=COc1ccc(P(=O)(OCC(=O)[C@H](Cc2ccccc2)NC(=O)[C@H](CC(C)C)NC(=O)OCc2ccccc2)c2ccc(OC)cc2)cc1 unit_label=% value_reported=85
compound="CC(C)C[C@H](NC(=O)OCc1ccccc1)C(=O)N[C@@H](Cc1ccccc1)C(=O)COP(=O)(OCc1ccccc1)c1ccccc1 (some centres unmarked)" unit_label=% value_reported=90
compound=CC(C)C[C@H](NC(=O)OC(C)(C)C)C(=O)N[C@@H](Cc1ccccc1)C(=O)COP(=O)(OCCC1CCCCC1)OCCC1CCCCC1 unit_label=% value_reported=28
compound=CC(C)C[C@H](NC(=O)OC(C)(C)C)C(=O)N[C@@H](Cc1ccccc1)C(=O)COP(=O)(OCc1ccccc1)OCc1ccccc1 unit_label=% value_reported=100
compound=CC(C)C[C@H](NC(=O)OCc1ccccc1)C(=O)N[C@@H](Cc1ccccc1)C(=O)COP(=O)(OCCc1ccccc1)OCCc1ccccc1 unit_label=% value_reported=99
compound=CC(C)C[C@H](NC(=O)OCc1ccccc1)C(=O)N[C@@H](CC(C)C)C(=O)P(=O)(c1ccc(Cl)cc1)c1ccc(Cl)cc1 unit_label=% value_reported=4
compound="CCOP(=O)(CC(=O)[C@H](Cc1ccccc1)NC(=O)[C@H](CC(C)C)NC(=O)OCc1ccccc1)c1ccccc1 (some centres unmarked)" unit_label=% value_reported=26
compound=CCCCOP(=O)(OCCCC)C(=O)[C@H](CC(C)C)NC(=O)[C@H](CC(C)C)NC(=O)OCc1ccccc1 unit_label=% value_reported=0
compound=CC(C)C[C@H](NC(=O)OCc1ccccc1)C(=O)N[C@@H](Cc1ccccc1)C(=O)COP1(=O)CC=CC1 unit_label=% value_reported=22
compound=CC(C)C[C@H](NC(=O)OC(C)(C)C)C(=O)N[C@@H](Cc1ccccc1)C(=O)COP(=O)(O)O unit_label=% value_reported=7
